List of pKd values.
molecular target: ZAP RBD (human, UniProt Q7Z2W4 1-227); assay: BLI; BLI: 20 mM Tris pH 8.0, 50 mM NaCl, 0.5 mM TCEP, 0.01% Tween 20, 8 U/ml RNasin Plus, 25 °C; EMSA: 20 mM Tris pH 8.0, 50 mM NaCl, 0.5 mM TCEP, 5% glycerol, room; conditions: protein: recombinant; tags: N-terminal StrepII tag removed by HRV 3C protease; label: 5'-biotin
Sequence (Q7Z2W4 1-227): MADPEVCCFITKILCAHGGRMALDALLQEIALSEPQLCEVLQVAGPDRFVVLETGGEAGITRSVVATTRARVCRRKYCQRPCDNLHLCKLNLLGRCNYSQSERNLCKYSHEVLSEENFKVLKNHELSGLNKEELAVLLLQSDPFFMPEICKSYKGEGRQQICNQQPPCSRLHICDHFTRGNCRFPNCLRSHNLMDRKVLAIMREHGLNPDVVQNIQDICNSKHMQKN
The scale used: pKd is minus the common logarithm of the concentration in molar units.

binder | endpointResult
UUCAGGU (ssRNA) [non-CpG RNA (Bi-UUCAGGU)] | 6.13

Okay, now this binder:
Entry UAAUCGU (ssRNA) [CpG RNA (Bi-UAAUCGU)] , pKd reported as 7.52
